Data provenance is PubChem BioAssay (NCI).

- System: MDA-MB-435
- TEST_SUMMARY: NCI tumour cell line growth inhibition, 48 h
MEASUREMENT_NAME: TGI

-- ask Quick one: TGI for NC(=O)NC(=O)Nc1ccc(Br)cc1 ?
-- reply > 22 µM

-- ask Then what about the molecule Nc1ncc(-c2ccc3ncnc(N4CCc5cc(F)c(Cl)cc54)c3c2)cc1C=O ?
-- reply 6.97 µM

-- ask Then what about the molecule CC(C)N(CCNc1nc(C(Cl)(Cl)Cl)nc2cc(Cl)ccc12)C(C)C ?
-- reply 3.47 µM

-- ask Then what about the molecule CN(C)CCNc1ncnc2nc(-c3ccccc3)c(-c3ccccc3)nc12 ?
-- reply > 100 µM

-- ask Then what about the molecule c1ccc(C2=Nc3ccccc3N3CNN=C23)cc1 ?
-- reply > 100 µM

-- ask Then what about the molecule S=c1[nH]nc(COc2ccc(Cl)cc2)n1-c1ccccc1 ?
-- reply > 100 µM

* * *

- Test system: RXF 393 renal
- TEST_SUMMARY: NCI tumour cell line growth inhibition, 48 h
Hi there, I'd appreciate the recorded TGI for every entry that follows.
# value in µM; strip the unit string

-- ask Quick one: TGI for Oc1ccc(/C=N/NC(=S)Nc2ccccc2)nc1 ?
-- reply 4.91

-- ask Then what about the compound Cc1cc(NS(=O)(=O)c2ccc(-c3cnc(C4CC4)o3)cc2)ccc1Cl ?
-- reply 3.13

-- ask Then what about the compound COC(=O)c1cc(C#N)[nH]c1-c1ccc(Br)s1 ?
-- reply 19.4

-- ask Then what about the compound CCOC(=O)C(Cc1ccccc1)n1c(O)c(/C=N/c2ncc(Cc3ccc(Cl)cc3Cl)s2)sc1=S (stereo unspecified) ?
-- reply 6.7

* * *

- Tested on: TK-10 renal
- TEST_SUMMARY: NCI tumour cell line growth inhibition, 48 h
MEASUREMENT_NAME: TGI

-- ask Quick one: TGI for O=c1[nH]c(-c2ccccc2)nc2cc([N+](=O)[O-])c(/C(Cl)=C/c3ccccc3)cc12 ?
-- reply 76.6 µM

-- ask Then what about the molecule CCN(CC)Cc1cc(Nc2ccnc3ccc(OC)cc23)ccc1O ?
-- reply 8.43 µM

-- ask Then what about the molecule S=c1[nH]nc(COc2ccc(Cl)cc2)n1-c1ccccc1 ?
-- reply > 100 µM

-- ask Then what about the molecule NC(N)=NCCCC(Nc1c2ccccc2nc2ccccc12)C(=O)O (configuration not stated) ?
-- reply > 100 µM

-- ask Then what about the molecule CC[C@]1(O)CC2CN(CCc3c([nH]c4ccccc34)C(C(=O)OC)(c3cc4c(cc3OC)N(C=O)[C@H]3[C@@](O)(C(=O)OC)[C@H](OC(C)=O)[C@]5(CC)[C@@H]6C[C@@H]6CN6CC[C@]43[C@@H]65)C2)C1 (some centres not stated) ?
-- reply 17.5 µM

-- ask Then what about the molecule O=S(=O)(Cc1ccccc1)c1nnc(S(=O)(=O)c2ccc(Cl)cc2)s1 ?
-- reply 41.9 µM

-- ask Then what about the molecule C=C1CC[C@@](C)(c2cc(Br)c(C)cc2OC(C)=O)[C@H]1C ?
-- reply 25 µM

-- ask Then what about the molecule CC(=O)OC1CCn2c1nc1c2C(=O)C=C(N2CC2)C1=O (configuration not stated) ?
-- reply 0.86 µM

-- ask Then what about the molecule CC1(C)CCC2(C(=O)O)C(O)CC3(C)C(=CCC4C5(C)CCC(OC6OCC(O)C(O)C6OC6OCC(O)C(O)C6OC6OCC(O)C(OC7OC(CO)C(O)C(O)C7O)C6O)C(C)(C)C5CCC43C)C2C1 (configuration not stated) ?
-- reply > 100 µM

-- ask Then what about the molecule COc1ccc(/C(=N/Nc2nc3ccccc3n2Cc2ccccc2)C(=O)O)cc1 ?
-- reply > 100 µM

-- ask Then what about the molecule CC(=O)NNc1nc(C)c(C(=O)/C=C/c2ccc(N(C)C)cc2)s1 ?
-- reply > 100 µM

-- ask Then what about the molecule CCCCN(CCCC)CC(C(=O)Nc1ccc([N+](=O)[O-])cc1[N+](=O)[O-])/C(C)=N\NC(=O)c1ccncc1 (configuration not stated) ?
-- reply > 100 µM

-- ask Then what about the molecule O=C(Nc1ccc(Nc2ccc(NC(=O)c3ccccc3)c3c2C(=O)c2ccccc2C3=O)c2c1C(=O)c1ccccc1C2=O)c1ccccc1 ?
-- reply > 100 µM

-- ask Then what about the molecule COc1ccc(N=Nc2c(-c3ccccc3)nn(C(=O)CC(=O)Nc3ccc(OC)cc3)c2-c2ccccc2)cc1 ?
-- reply > 100 µM

-- ask Then what about the molecule COc1ccc(C(=O)C(c2ccc(OC)cc2)C2(O)C(=O)Nc3c(Cl)cc(Cl)cc32)cc1 (configuration not stated) ?
-- reply 55 µM

-- ask Then what about the molecule CC1=C(C)C2(C#N)C(=O)N3C(=NC(c4ccco4)NC3c3ccco3)C2(C#N)C(c2ccco2)N1 (configuration not stated) ?
-- reply > 100 µM

-- ask Then what about the molecule O=C(O)C1CC[N-]CC1.O=C(O)C1CC[N-]CC1.[NH2-].[NH2-].[Pt+4] ?
-- reply > 100 µM

-- ask Then what about the molecule CCN1C[C@@H](C)n2c(c(O)c3c(=O)n(Cc4ccc(F)c(Cl)c4)nc(C(=O)NC)c32)C1=O ?
-- reply 12.6 µM

-- ask Then what about the molecule CN1CCOC1(C)c1ccccc1 (configuration not stated) ?
-- reply > 100 µM

-- ask Then what about the molecule O=c1nc(N2CCCCC2)sc2[nH]c3ccccc3c12 ?
-- reply > 100 µM

-- ask Then what about the molecule CCCN(CCCC(NC(C)=O)C(=O)NCc1ccccc1)C(=O)N(C)N=O (configuration not stated) ?
-- reply > 100 µM

-- ask Then what about the molecule CCN(CC)CCOc1ccc2c(-c3ccccc3)c(-c3ccc(OC)cc3)c(=O)oc2c1 ?
-- reply 25.2 µM

-- ask Then what about the molecule Cc1c(CN2CCOCC2)c(CN2CCOCC2)c(C)n1-c1ccc(Cl)cn1 ?
-- reply > 100 µM

-- ask Then what about the molecule Cn1ccc(S(=O)(=O)N2CCC[C@H](Nc3nccc(-c4c(-c5cccc(O)c5)nc5occn45)n3)C2)n1 ?
-- reply 60.2 µM

-- ask Then what about the molecule NC(=S)N/N=C/C(O[C@@H](/C=N/NC(N)=S)CO)n1cnc2c(N)ncnc21 (some centres not stated) ?
-- reply > 100 µM

-- ask Then what about the molecule CC1=CP(=O)(OC(C)C)C=C(C)C1=C(Cl)Cl (configuration not stated) ?
-- reply > 100 µM

-- ask Then what about the molecule Oc1ccc(I)c2cccnc12 ?
-- reply > 100 µM

-- ask Then what about the molecule O=C(Oc1ccc(C(c2c(O)c3ccccc3oc2=O)c2c(O)c3ccccc3oc2=O)cc1)c1ccc(C(=O)c2ccccc2)cc1 ?
-- reply 37.8 µM

-- ask Then what about the molecule CC(NC1=NCCO1)c1ccsc1 (configuration not stated) ?
-- reply > 100 µM

-- ask Then what about the molecule O=C(Cn1c2ccc(Br)cc2c2nc3ccccc3nc21)NNC(=O)NC1CCCCC1 ?
-- reply > 100 µM

-- ask Then what about the molecule CCOC(=O)/C1=C(\C)N(Cc2ccccc2)C(=O)c2ccccc2C(=O)c2c(OC(C)=O)ccc(OC(C)=O)c21 ?
-- reply > 100 µM

-- ask Then what about the molecule CC(C)=NC(C(=O)O)C(C)(C)S (configuration not stated) ?
-- reply > 100 µM

-- ask Then what about the molecule O=C(N[C@H](CO)[C@H](O)c1ccc([N+](=O)[O-])cc1)C(Cl)Cl ?
-- reply > 100 µM

-- ask Then what about the molecule CC(O)C1(O)C(O)CC(OC2c3cc4c(c(O)c3[C@@H]3C[C@@]2(C)OC32C=c3cc[nH]c3=N2)C(=O)c2cccc(O)c2C4=O)OC1C (some centres not stated) ?
-- reply 7.32 µM

-- ask Then what about the molecule C=CCc1cc(OC)c(O)c(C(=O)/C=C/c2ccc(OC)c(OC)c2)c1 ?
-- reply 64.1 µM

-- ask Then what about the molecule [pH]1p2[pH]p3p1p3[pH]2.c1cc[c]([Ge]([c]2ccccc2)[c]2ccccc2)cc1.c1cc[c]([Ge]([c]2ccccc2)[c]2ccccc2)cc1.c1cc[c]([Ge]([c]2ccccc2)[c]2ccccc2)cc1 ?
-- reply 33.5 µM

-- ask Then what about the molecule O=[N+]([O-])c1ccc(C2Nn3c(nnc3-c3cccc([N+](=O)[O-])c3)S2)cc1 (configuration not stated) ?
-- reply > 100 µM
